Molecular target: bovine cerebral calmodulin (Bos taurus, UniProt P62157)
Construct: bovine cerebral calmodulin; from tissue; host or cells: bovine brain (calmodulin); bovine myocardium (PDE)
Experiment: Calmodulin antagonism (inhibition of 5'-AMP formation by calmodulin-stimulated c-AMP-PDE)
Format: biochemical
Details: 50 m units bovine cerebral calmodulin, 0.1 mM Ca^2+, 1 μM c-AMP, 0.875 m units bovine myocardial c-AMP-PDE; read-out: Calmodulin antagonism IC50
pIC50: −log10 of the molar value.
measured metric: pIC50

compound	measured on	measured metric	value reported
c1ccc(CCON=C(c2ccccc2)c2cccnc2)cc1 [Compound 1]	bovine cerebral calmodulin (Bos taurus, UniProt P62157)	pIC50	5.42
COc1ccc(CON=C(c2ccccc2)c2cccnc2)cc1OC [Compound 14]	bovine cerebral calmodulin (Bos taurus, UniProt P62157)	pIC50	5.10
Cc1ccccc1CCON=C(c1ccccc1)c1cccnc1 [Compound 43]	bovine cerebral calmodulin (Bos taurus, UniProt P62157)	pIC50	5.39
FC(F)(F)c1cccc(C(=NOCCc2ccccc2)c2cccnc2)c1 [Compound 64]	bovine cerebral calmodulin (Bos taurus, UniProt P62157)	pIC50	5.19
c1ccc(OCCON=C(c2ccccc2)c2cccnc2)cc1 [Compound 26]	bovine cerebral calmodulin (Bos taurus, UniProt P62157)	pIC50	5.00

P. Cc1ccc(C)c(C(=NOCCc2ccccc2)c2cccnc2)c1 [Compound 62]
Q. Fc1cccc(C(=NOCCc2ccccc2)c2cccnc2)c1 [Compound 63]
Query: # compare pIC50 for P vs Q ; return the one with the smaller value When you have decided, please share the label of that item.
Reply: P
(P: 5.10, Q: 5.30)

----------
The compounds listed here are annotated with their Activity to improve the deformation of erythrocytes [pass through time (sec.)].
System: erythrocytes
Assay: Activity to improve the deformation of erythrocytes (time to pass through millipore filter)
Format: cell-based, male New Zealand rabbit
Settings: rabbit washed erythrocytes treated with Ca^2+ and ionofore A-23187; 5 μm millipore filter
Number in s, nothing else.

smiles record	result unit	value reported
Cc1ccccc1CCON=C(c1ccccc1)c1cccnc1	s	14
COc1ccc(CON=C(c2ccccc2)c2cccnc2)cc1OC	s	15

Please turn your attention to the following entry.
Query: Please report the recorded Activity to improve the deformation of erythrocytes [pass through time (sec.)] for `FC(F)(F)c1cccc(C(=NOCCc2ccccc2)c2cccnc2)c1` .
Reply: 16

----------
The compounds listed here are annotated with their Activity to improve the deformation of erythrocytes [pass through time (sec.)].
Tested on: erythrocytes
Assay: Activity to improve the deformation of erythrocytes (time to pass through millipore filter)
Format: cell-based, male New Zealand rabbit
Conditions: rabbit washed erythrocytes treated with Ca^2+ and ionofore A-23187; 5 μm millipore filter
Counter-ions that a name gives are not always drawn.
Number in s, nothing else.

compound	value reported
Cc1ccc(C)c(C(=NOCCc2ccccc2)c2cccnc2)c1 [Compound 62]	18
Clc1ccc(C(=NOCCc2ccccc2)c2cccnc2)cc1 [Compound 57]	20
CNc1ccc2oc(C[C@H]3O[C@@]4(CC[C@H]3C)O[C@H]([C@H](C)C(=O)c3ccc[nH]3)[C@H](C)C[C@H]4C)nc2c1C(=O)O [Calcium salt of A 23187, reference compound]	39

Query: # query: Activity to improve the deformation of erythrocytes [pass through time (sec.)] | item O=[N+]([O-])c1cccc(C(=NOCCc2ccccc2)c2cccnc2)c1 [Compound 65] | system: erythrocytes
Reply: 18

----------
Target: Ca^2 + Channel (Cavia porcellus)
Construct: The cecum string of a male Hartley guinea pig; from tissue; host or cells: isolated cecum string (taenia caeci) of male Hartley guinea pig
Sequence (O35505 whole entry): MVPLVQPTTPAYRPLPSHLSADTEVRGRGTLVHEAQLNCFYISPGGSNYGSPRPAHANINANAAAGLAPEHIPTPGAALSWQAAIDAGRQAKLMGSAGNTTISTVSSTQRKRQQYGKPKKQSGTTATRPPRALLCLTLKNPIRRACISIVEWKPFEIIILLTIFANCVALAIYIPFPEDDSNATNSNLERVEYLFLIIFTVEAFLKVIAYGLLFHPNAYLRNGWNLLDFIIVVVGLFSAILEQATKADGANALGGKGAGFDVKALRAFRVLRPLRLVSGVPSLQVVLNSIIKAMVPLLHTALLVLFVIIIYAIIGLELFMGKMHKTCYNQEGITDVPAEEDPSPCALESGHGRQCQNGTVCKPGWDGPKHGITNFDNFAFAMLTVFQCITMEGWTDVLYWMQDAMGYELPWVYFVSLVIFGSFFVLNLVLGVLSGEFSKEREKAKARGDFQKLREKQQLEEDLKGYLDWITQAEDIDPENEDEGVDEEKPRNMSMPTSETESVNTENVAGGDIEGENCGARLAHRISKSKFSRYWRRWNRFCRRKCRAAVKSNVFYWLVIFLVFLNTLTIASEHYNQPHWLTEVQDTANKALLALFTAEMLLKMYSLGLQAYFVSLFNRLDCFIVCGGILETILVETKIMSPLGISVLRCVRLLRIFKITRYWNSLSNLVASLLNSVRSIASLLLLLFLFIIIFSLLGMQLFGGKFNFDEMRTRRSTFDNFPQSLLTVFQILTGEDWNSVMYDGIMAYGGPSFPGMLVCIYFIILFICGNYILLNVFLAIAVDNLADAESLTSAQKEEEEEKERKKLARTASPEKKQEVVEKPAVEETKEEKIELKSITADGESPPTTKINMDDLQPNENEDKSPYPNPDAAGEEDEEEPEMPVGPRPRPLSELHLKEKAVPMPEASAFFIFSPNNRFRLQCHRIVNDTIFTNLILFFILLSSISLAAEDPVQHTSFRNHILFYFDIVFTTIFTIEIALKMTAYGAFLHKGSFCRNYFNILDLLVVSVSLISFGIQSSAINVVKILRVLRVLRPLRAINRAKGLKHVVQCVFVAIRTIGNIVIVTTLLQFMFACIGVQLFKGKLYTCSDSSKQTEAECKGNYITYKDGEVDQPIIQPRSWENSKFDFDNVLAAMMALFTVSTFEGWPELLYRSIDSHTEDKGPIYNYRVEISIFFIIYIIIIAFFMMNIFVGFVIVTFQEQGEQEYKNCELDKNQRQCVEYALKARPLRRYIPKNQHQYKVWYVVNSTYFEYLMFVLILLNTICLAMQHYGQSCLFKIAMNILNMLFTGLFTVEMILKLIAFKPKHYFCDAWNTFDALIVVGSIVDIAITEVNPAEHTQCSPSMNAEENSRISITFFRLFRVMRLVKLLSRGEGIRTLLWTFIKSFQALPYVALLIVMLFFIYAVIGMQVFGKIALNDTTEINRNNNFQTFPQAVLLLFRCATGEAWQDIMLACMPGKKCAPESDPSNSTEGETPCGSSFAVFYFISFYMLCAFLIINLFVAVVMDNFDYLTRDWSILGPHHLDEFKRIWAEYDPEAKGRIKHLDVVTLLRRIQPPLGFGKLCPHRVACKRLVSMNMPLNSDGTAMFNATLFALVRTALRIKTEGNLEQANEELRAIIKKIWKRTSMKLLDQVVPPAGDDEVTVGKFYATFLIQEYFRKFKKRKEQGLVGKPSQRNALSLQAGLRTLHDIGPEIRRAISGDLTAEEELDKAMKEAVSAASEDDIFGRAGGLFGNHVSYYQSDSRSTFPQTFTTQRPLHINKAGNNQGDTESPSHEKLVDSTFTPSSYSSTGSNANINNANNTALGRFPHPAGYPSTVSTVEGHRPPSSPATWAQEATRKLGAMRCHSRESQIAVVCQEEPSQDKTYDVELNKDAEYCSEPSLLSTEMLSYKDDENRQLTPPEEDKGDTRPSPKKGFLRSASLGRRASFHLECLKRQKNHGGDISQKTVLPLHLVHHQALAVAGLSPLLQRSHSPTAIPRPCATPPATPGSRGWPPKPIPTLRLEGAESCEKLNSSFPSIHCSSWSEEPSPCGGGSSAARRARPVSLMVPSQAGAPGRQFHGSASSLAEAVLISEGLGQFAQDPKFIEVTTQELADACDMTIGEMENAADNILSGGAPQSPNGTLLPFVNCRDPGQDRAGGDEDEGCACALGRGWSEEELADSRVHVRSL
Assay: Calcium channel antagonism (isolated guinea pig cecum string, calcium chloride concentration reaction curve)
Type: cell-based, male Hartley guinea pig
Settings: high potassium Krebs solution, 32° C, pretreatment 30 minutes, read-out: Ca^2 + Channel antagonism (pA2) (converted)
measured metric: Kb (nM)

I. COc1ccc(CON=C(c2ccccc2)c2ccccn2)cc1OC
II. O=[N+]([O-])c1cccc(C(=NOCCc2ccccc2)c2cccnc2)c1
Query: For this pair, I and II , which shows a numerically higher Kb? When you have decided, please share the label of that item.
Reply: II
(II: 692 nM, I: 148 nM)

a. c1ccc(CCON=C(c2cccnc2)c2cccs2)cc1
b. FC(F)(F)c1cccc(C(=NOCCc2ccccc2)c2cccnc2)c1
c. c1ccc(OCCON=C(c2ccccc2)c2cccnc2)cc1
Query: # rank_down: sort by Kb, max first Output the labels ranked as instructed.
Reply: b, a, c
(b: 871 nM, a: 525 nM, c: 234 nM)

A. Cc1ccc(C)c(C(=NOCCc2ccccc2)c2cccnc2)c1
B. Cc1ccccc1CCON=C(c1ccccc1)c1cccnc1
Query: For this pair, A and B , which shows a numerically higher Kb? When you have decided, please share the label of that item.
Reply: A

a. COc1ccc(CON=C(c2ccccc2)c2cccnc2)cc1OC
b. c1ccc(CCON=C(c2ccccc2)c2cccnc2)cc1
Query: # compare Kb for a vs b ; return the one with the smaller value When you have decided, please share the label of that item.
Reply: b
